protocol_notes: particle size and BET specific surface area of lovastatin crystals
Format: physicochemical
condition_info: specific surface area, BET method
Below, each of the molecules is paired with its reported Spec. Pov. value.

molecule | Spec. Pov. / m^2/g
CC[C@H](C)C(=O)O[C@H]1C[C@@H](C)C=C2C=C[C@H](C)[C@H](CC[C@@H]3C[C@@H](O)CC(=O)O3)[C@H]21 [A, lovastatin] | 3.3
CC[C@H](C)C(=O)O[C@H]1C[C@@H](C)C=C2C=C[C@H](C)[C@H](CC[C@@H]3C[C@@H](O)CC(=O)O3)[C@H]21 [B, lovastatin] | 2.2
CC[C@H](C)C(=O)O[C@H]1C[C@@H](C)C=C2C=C[C@H](C)[C@H](CC[C@@H]3C[C@@H](O)CC(=O)O3)[C@H]21 [Example 5, lovastatin] | 1.3
CC[C@H](C)C(=O)O[C@H]1C[C@@H](C)C=C2C=C[C@H](C)[C@H](CC[C@@H]3C[C@@H](O)CC(=O)O3)[C@H]21 [C, lovastatin] | 0.7

###

protocol_notes: particle size and BET specific surface area of lovastatin crystals
Assay type: physicochemical
condition_info: particle size, 90% (volume) of particles below
recorded_metric: d(0.9)

molecule | experimental_value
CC[C@H](C)C(=O)O[C@H]1C[C@@H](C)C=C2C=C[C@H](C)[C@H](CC[C@@H]3C[C@@H](O)CC(=O)O3)[C@H]21 [C, lovastatin] | 163 μm
CC[C@H](C)C(=O)O[C@H]1C[C@@H](C)C=C2C=C[C@H](C)[C@H](CC[C@@H]3C[C@@H](O)CC(=O)O3)[C@H]21 [Example 4, lovastatin] | 163 μm
CC[C@H](C)C(=O)O[C@H]1C[C@@H](C)C=C2C=C[C@H](C)[C@H](CC[C@@H]3C[C@@H](O)CC(=O)O3)[C@H]21 [B, lovastatin] | 31 μm

###

Below, each of the compounds is paired with its reported d(0.9) value.
protocol_notes: particle size and BET specific surface area of lovastatin crystals
Type: physicochemical
condition_info: particle size, 90% (volume) of particles below

compound | d(0.9)
CC[C@H](C)C(=O)O[C@H]1C[C@@H](C)C=C2C=C[C@H](C)[C@H](CC[C@@H]3C[C@@H](O)CC(=O)O3)[C@H]21 [Example 6, lovastatin] | 22 μm
CC[C@H](C)C(=O)O[C@H]1C[C@@H](C)C=C2C=C[C@H](C)[C@H](CC[C@@H]3C[C@@H](O)CC(=O)O3)[C@H]21 [A, lovastatin] | 22 μm
CC[C@H](C)C(=O)O[C@H]1C[C@@H](C)C=C2C=C[C@H](C)[C@H](CC[C@@H]3C[C@@H](O)CC(=O)O3)[C@H]21 [Example 5, lovastatin] | 77 μm
